The entries below are paired with their reported IC50.
EXPERIMENTAL SYSTEM: UniProt:O88943
Sequence (O88943 whole entry, looked up): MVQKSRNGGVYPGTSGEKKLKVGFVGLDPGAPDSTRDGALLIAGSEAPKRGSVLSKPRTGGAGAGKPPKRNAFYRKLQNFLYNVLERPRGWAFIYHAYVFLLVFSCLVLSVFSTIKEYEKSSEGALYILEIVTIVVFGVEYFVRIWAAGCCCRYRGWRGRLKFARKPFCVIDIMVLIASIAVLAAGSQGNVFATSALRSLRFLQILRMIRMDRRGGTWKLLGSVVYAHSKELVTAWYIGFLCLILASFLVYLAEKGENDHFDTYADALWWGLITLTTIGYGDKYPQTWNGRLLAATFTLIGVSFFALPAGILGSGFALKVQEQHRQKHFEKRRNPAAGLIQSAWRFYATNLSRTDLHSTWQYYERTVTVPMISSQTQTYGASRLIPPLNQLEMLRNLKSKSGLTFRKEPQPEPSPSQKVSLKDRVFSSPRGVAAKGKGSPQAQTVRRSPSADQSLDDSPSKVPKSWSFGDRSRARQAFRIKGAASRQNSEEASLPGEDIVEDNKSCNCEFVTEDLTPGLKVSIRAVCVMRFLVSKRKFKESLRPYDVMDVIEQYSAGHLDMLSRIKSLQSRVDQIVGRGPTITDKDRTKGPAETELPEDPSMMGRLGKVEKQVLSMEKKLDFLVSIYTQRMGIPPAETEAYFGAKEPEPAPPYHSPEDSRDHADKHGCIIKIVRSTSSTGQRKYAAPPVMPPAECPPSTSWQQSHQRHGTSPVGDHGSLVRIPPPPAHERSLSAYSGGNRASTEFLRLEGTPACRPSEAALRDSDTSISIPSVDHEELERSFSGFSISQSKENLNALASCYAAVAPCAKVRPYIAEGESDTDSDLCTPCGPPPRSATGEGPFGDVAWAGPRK
PROCEDURE TEXT: blockers of rat KCNQ2 potassium current – automated electrophysiology, CHO cells, orthogonal assay for KCNQ2 inhibitor project, SAR follow-up (AID 504837)
COND: automated patch clamp current

Some molecules with known IC50 results, for comparison:
Endpoint output: IC50 of CC1Oc2ccccc2OC1C(=O)NCC(c1cccs1)N1CCOCC1 (centres undefined) . Value? 8.36 µM

Which value of IC50 has been reported for O=C(NC[C@@H](c1cccs1)N1CCOCC1)C12CC3CC(CC(C3)C1)C2 in the records? 0.14 µM

Quick check: IC50 of O=C(CC1CCCCC1)NCC(c1cccs1)N1CCOCC1 (centres undefined) ? 1.73 µM

Quick check: IC50 of O=C(NCC(c1cccs1)N1CCOCC1)C1COc2ccc(Cl)cc2C1 (centres undefined) ? 3.2 µM

Give its IC50 value. Item: O=C(NC[C@H](c1cccs1)N1CCOCC1)C12CC3CC(CC(C3)C1)C2 8.48 µM

Look up IC50 for this molecule: CC1(C(=O)NCC(c2cccs2)N2CCOCC2)CC1(Cl)Cl (centres undefined) 9.51 µM

Continuing:
If you can, please state the reported IC50 value of O=C(NCC(c1cccs1)N1CCOCC1)C1CCCCC1 (centres undefined) . 2.93 µM

Fill in the blank: the reported IC50 of Cc1ccc(OCCC(=O)NCC(c2cccs2)N2CCOCC2)cc1 (centres undefined) is ____. 8.98 µM

Bench note: what IC50 did O=C(NCC(c1ccco1)N1CCOCC1)C(c1ccccc1)c1ccccc1 (centres undefined) show? 1.2 µM
